system.name: full-length Plk1 (Homo sapiens, UniProt P53350)
Sequence (P53350 whole entry): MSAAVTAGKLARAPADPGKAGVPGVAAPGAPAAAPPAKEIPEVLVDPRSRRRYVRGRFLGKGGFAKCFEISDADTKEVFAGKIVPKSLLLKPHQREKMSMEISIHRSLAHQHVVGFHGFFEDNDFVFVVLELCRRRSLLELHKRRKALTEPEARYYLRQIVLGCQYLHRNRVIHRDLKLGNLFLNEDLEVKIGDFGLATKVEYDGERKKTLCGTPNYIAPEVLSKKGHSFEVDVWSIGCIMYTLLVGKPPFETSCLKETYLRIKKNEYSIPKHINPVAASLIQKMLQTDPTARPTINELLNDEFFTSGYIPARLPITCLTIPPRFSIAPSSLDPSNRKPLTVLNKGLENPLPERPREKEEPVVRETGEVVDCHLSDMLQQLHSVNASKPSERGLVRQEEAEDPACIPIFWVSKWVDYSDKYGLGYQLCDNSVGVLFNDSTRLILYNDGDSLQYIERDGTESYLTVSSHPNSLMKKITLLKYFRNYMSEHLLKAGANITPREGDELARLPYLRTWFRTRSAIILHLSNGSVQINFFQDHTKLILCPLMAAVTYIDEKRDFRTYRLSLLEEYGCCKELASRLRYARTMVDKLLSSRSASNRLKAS
procedure.text: fluorescence recovery assay, competition of inhibitors with probe 4
Assay type: binding
assay.metric: IC50

stdin: // lookup IC50 for CC[C@@H]1C(=O)N(C)c2cnc(Nc3ccc(C(=O)N[C@H]4CC[C@H](N5CCN(CC6CC6)CC5)CC4)cc3OC)nc2N1C(C)C [BI6727]
stdout: 31 nM
